method: physchem
run conditions: organic solvent or mixture, Concentration solubilized API (mg/mL)

[
  {
    "compound": "NC(=O)N1c2ccccc2C=Cc2ccccc21 [Carbamazepine]",
    "solubility": "> 100 mg/mL"
  }
]

====

method: physchem
run conditions: organic solvent or mixture, solubility of itraconazole
readout type: solubility

[
  {
    "compound": "CCC(C)n1ncn(-c2ccc(N3CCN(c4ccc(OCC5COC(Cn6cncn6)(c6ccc(Cl)cc6Cl)O5)cc4)CC3)cc2)c1=O (stereo not shown)",
    "readout type": "solubility",
    "assay value": "< 25 mg/mL"
  }
]

====

method: physchem
run conditions: 20 °C, pH 7, water
Param threshold (0.6 µg/mL) applies to solubility; output MET when value >= threshold, NOT MET when value < threshold.

[
  {
    "molecule": "NC(=O)N1c2ccccc2C=Cc2ccccc21 [Carbamazepine]",
    "category label": "MET"
  },
  {
    "molecule": "O=C(O)c1ccccc1Nc1cccc(C(F)(F)F)c1",
    "category label": "MET"
  },
  {
    "molecule": "CC(=O)N1CCN(c2ccc(OCC3COC(Cn4ccnc4)(c4ccc(Cl)cc4Cl)O3)cc2)CC1 (stereo not drawn)",
    "category label": "NOT MET"
  },
  {
    "molecule": "CCC(C)n1ncn(-c2ccc(N3CCN(c4ccc(OCC5COC(Cn6cncn6)(c6ccc(Cl)cc6Cl)O5)cc4)CC3)cc2)c1=O (stereo not drawn)",
    "category label": "NOT MET"
  },
  {
    "molecule": "CC(C)Cc1ccc(C(C)C(=O)O)cc1 (stereo not drawn)",
    "category label": "MET"
  }
]
